For each record, write down the corresponding phosphorylation enrichment.
# measured-on: EPHB1 (UniProt P54762)
# Sequence (P54762 whole entry, looked up): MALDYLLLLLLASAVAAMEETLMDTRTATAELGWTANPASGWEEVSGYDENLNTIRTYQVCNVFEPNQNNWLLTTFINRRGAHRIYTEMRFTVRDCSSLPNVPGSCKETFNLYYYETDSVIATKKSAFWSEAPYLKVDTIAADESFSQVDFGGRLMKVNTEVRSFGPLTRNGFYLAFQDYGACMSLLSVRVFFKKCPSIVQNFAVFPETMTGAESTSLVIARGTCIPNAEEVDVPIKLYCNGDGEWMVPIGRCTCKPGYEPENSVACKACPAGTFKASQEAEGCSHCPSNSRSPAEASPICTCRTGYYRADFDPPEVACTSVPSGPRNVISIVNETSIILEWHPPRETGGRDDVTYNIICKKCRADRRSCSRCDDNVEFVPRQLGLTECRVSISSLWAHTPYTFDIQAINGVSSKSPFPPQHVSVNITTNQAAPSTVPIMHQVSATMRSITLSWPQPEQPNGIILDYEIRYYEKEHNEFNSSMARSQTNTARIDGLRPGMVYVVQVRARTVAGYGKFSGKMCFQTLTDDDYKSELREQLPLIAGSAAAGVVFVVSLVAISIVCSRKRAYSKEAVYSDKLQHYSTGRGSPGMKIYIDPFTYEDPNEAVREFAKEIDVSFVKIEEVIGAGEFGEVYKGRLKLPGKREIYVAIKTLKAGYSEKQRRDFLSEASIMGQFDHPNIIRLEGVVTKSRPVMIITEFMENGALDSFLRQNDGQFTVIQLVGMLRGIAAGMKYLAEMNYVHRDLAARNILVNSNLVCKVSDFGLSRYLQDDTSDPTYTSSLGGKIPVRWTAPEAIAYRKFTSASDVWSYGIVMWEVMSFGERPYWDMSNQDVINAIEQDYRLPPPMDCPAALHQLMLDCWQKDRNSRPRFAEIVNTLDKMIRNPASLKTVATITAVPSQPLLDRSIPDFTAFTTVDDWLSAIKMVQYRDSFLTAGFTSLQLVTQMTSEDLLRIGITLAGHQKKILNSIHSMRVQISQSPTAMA
# procedure-details: phosphorylation enrichment, bacterial display (enrichment ratio); higher = better substrate or ligand; peptides without Tyr show the background;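 note: 11-residue human phosphosite peptides and single-mutation variants displayed on the E. coli surface, counted by deep sequencing, each peptide's frequency after selection divided by its frequency in the unselected input library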;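 note: frequency after pTyr selection over input frequency; kinase dosed for 20-30% of maximal phosphorylation in three min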
Please reply with the number alone, leaving off any unit.

Kindly state the measured phosphorylation enrichment obtained for GGGCGYNRSSG [FUS_Y232_G230C] with EPHB1 (UniProt P54762).
0.392

Lookup KKRSVYIKVLF [CC2D2A_Y683_L684I]
0.411

What would you report for NTVLGYFIGCI [GARS1_Y408_R412C] ?
0.653

Continue with VHKEGYNKLNQ [ZNF676_Y98]
0.467

Here is the next sequence: RTTIHYNFMCN [TP53_Y234_C229R_YF]
0.908

Field entry: GTYVIYVRFSG [FLNB_Y1687_G1691S]
0.696

Same again, this time with SLIDMYSEVLA [OPA1_Y268_D273A]
0.766

Can you handle NDPMEYAKQHG [ASS1_Y163_L160P] next?
0.419

And what about the sequence LLKKVYLMLDN [STAT1_Y203_M202V] ?
0.93

Subsequent entry: DVLVEYQEEGR [GNS_Y416_G418E]
0.634

Then what about the sequence DEQKKYYNAMK [SCN5A_Y1494_E1489D] ?
0.613

Then what about the sequence ASIVDYNIIGW [MYH7_Y588_G584S] ?
0.742

Please give the result for ESKKHYGFSLF [ANXA3_Y295_F291S_YF] too.
0.574

* * *

# measured-on: Hck (UniProt P08631)
# Sequence (P08631 whole entry, looked up): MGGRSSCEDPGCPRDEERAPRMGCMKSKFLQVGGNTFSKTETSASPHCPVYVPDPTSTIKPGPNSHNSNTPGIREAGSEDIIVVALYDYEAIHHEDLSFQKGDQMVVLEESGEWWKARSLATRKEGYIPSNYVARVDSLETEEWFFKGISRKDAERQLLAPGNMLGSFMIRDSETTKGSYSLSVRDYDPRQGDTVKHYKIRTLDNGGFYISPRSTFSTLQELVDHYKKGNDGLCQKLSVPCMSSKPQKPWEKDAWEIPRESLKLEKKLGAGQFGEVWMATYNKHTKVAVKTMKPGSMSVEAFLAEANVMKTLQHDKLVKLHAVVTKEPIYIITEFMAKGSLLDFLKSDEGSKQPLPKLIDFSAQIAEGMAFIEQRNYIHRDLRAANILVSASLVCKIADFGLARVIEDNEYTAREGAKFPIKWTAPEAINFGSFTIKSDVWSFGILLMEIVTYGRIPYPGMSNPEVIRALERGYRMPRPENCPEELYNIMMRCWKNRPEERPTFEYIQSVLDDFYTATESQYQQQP
# procedure-details: phosphorylation enrichment, bacterial display (enrichment ratio); higher = better substrate or ligand; peptides without Tyr show the background
Label Y when phosphorylation enrichment is at or above 0.5; anything below gets N.

I'd appreciate it if you could say whether SLVVPYEPPEV [TP53_Y220_V216L] has phosphorylation enrichment at least equal to 0.5.
Y

What about this sequence? KAPPTYDTVLQ [CYP3A4_Y347]
Y

Same thing, different sequence: CDKEFYSVHNK [MET_Y1235_Y1230C_YF]
N

Moving on to ANAYIYDVQLP [L1CAM_Y420_V421D]
Y

Queued: NTGDYCDLYGG [PTPN11_Y63_Y63C]
Y

Another sequence: CPTIHYNFMCN [TP53_Y234_T230P_YF]
Y

Moving on to NTGDDYDLFGG [PTPN11_Y63_Y62D_YF]
Y

What would you report for KLPDAYERFIL [G6PD_Y437_L440F] ?
Y

Next: TFEYRYLEDRD [CNOT3_Y746]
Y

Also need FRDMDYRSFPH [RBM10_Y41_R46H_YF] , thanks.
N

What would you report for KRPAVYIDEEA [EPM2A_Y304] ?
N

Then LASLIYNFVLF [AQP6_Y231] ?
Y

Try this sequence too: QCTSAYPLQPE [NANS_Y188]
Y

Also, LEDEVYAQKMK [TPM2_Y261] please.
Y

Next entry: RREWFYEVIIV [BACE1_Y260_YF]
Y

How about this sequence: IRFPPYTDWNQ [ALDH3B2_Y365_H361R_YF]
N

What would you report for EYGFRYELVQY [UGGT2_Y1289] ?
Y

Lookup NPQKSYFIRLY [WAS_Y83]
N

Next up: AAALAYGLDKS [HSPA9_Y230]
N

And the next one, EKLQKYYRKNP [EHHADH_Y682_Q685K] ?
N

Now consider KELAKYYKLHH [AK7_Y390_N389K] and answer again.
N

// repeat for AGADGYGFLAP [FOXL2_Y186_YF] and report
Y

Follow-up entry: MEVGQYFFVKC [CYBB_Y324_I325F]
Y

// next record RMGNLYDIDEN [GRIN2A_Y1246_D1251N]
Y

Another sequence to check: ILGLEYSLRVP [HELZ2_Y1304]
Y

Now this one: YTHSDYQYSQR [PKP2_Y166]
N

One more sequence: FGAHNYHPLPV [OAT_Y55_YF]
Y

Same read-out for GSERDYTFDEL [EIF2S2_Y174_E177D_YF] ?
Y

What would you report for TLKDVYDDGKY [RPS6KA3_Y483] ?
Y

Also VYLGAYDCFLP [SLC22A5_Y486_R488C] ?
Y

Again, but for ATATEYHTTSH [SLC4A1_Y46_D45E]
N

Then what about the sequence RQQEVYLLYKQ [RARRES1_Y159_D158V] ?
Y

Also check DEDFLYREELA [POR_Y575_YF]
N

TSSAVYMNLAS [GATAD2B_Y317_I316V] ?
Y

Record: CLAKMYFSAVE [CP_Y539_D544E_YF]
Y

Could you do the same for LAIERYVVVSK [RHO_Y136_C140S] , please?
N

And SVVVPYEPPEF [TP53_Y220_V225F] ?
N

Also, SFGESYDNSKS [MAN1B1_Y60_N59S] please.
N

EQQRAYLEGTC [HLA-C_Y183_L180Q] ?
Y

Item: CQLENYCNGGG [INS_Y108_Y103C]
Y

And what about the sequence LRRFIYRPPDR [OTOF_Y1231] ?
Y

Can you handle QGRQTYLLQPA [DDR2_Y813_P815L] next?
N

Also need TQKLAYVELQQ [CENPF_Y700_M701V] , thanks.
N

Again, but for DAICYYRMENA [NPHS2_Y195]
Y

Now the same for FADGVYQALEE [DUOX2_Y70_YF]
Y

PNRILYGDFRQ [MYH6_Y717] ?
Y

Same question, KIRDWYQRQRP [KRT14_Y151] this time
N

Moving on to the next sequence: AKQVGCENAGT [PC_Y304_Y304C]
N

Try TLQSMSGCDVG [HLA-B_Y123_Y123S] next.
N

Proceed to RPAPQYPHQVP [ADAM12_Y895]
Y

Now consider AFGGGYGGVLT [KRT19_Y65_YF] .
N

What do we get for SVVVPYEPPED [TP53_Y220_V225D] ?
Y

Next sequence: RFLRGYRQHAY [HLA-A_Y137_D140H]
Y

* * *

# measured-on: MERTK (UniProt Q12866)
# Sequence (Q12866 whole entry, looked up): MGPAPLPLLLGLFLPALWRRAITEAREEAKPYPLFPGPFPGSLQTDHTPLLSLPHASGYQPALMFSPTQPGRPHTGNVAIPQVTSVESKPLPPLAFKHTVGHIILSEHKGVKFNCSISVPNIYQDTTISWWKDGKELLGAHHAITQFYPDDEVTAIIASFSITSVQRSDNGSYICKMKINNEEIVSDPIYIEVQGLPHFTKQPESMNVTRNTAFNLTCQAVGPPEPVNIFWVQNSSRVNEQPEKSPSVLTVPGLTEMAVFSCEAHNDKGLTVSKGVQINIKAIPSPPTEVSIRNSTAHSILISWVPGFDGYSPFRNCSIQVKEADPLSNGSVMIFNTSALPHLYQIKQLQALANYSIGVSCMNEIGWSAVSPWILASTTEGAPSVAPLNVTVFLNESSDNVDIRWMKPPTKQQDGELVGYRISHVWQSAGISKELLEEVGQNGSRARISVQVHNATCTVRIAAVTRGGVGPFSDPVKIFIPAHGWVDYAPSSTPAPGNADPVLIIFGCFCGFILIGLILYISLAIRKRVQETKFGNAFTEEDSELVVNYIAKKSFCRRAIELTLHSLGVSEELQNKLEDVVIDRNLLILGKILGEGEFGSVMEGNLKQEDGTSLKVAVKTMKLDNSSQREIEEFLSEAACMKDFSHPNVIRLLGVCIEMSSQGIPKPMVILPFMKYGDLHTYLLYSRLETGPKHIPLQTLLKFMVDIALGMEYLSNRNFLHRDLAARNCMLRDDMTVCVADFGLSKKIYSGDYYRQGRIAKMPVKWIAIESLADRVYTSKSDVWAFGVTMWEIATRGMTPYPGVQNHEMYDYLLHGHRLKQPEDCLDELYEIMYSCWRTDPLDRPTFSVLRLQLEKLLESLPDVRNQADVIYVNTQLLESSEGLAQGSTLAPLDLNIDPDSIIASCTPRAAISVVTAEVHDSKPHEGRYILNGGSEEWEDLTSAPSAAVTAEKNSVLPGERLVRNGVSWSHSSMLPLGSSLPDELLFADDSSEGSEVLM
# procedure-details: phosphorylation enrichment, bacterial display (enrichment ratio); higher = better substrate or ligand; peptides without Tyr show the background
measure: phosphorylation enrichment
Keep the answer to the number alone.

Please look up its phosphorylation enrichment: NDDDVYLSLEE [VAV2_Y142_R143L]
0.507

Can you handle IFGVSYDEFRF [CFTR_Y512_YF] next?
0.671

Further, for KFLENYLNRLL [PLD2_Y169_YF] ?
0.37

Same thing, different sequence: PTTMTYFPHFD [HBA1_Y43_K41M]
0.802

Thanks! And WKGSWYSMRKM [FGB_Y475] ?
0.499

What would you report for HEEDNYIELIP [NWD2_Y566] ?
1.33

Try this sequence next: SAPDSYIRIGN [SLC38A4_Y27_G29R]
0.488

Could you do the same for IRNRDYDDIDD [TTYH2_Y424_T419I] , please?
0.541

Now the sequence ITNLLYHVVGG [GBA_Y412_W417G]
7.37

Likewise for HSGLAYTMERS [GLUD1_Y512] ?
0.521

Quick one: STTSDYQWDFS [MTDH_Y364_V368F]
0.409

Consider next the sequence PQDSAYHSGIQ [FLG_Y3940_S3935P] in the same way.
0.445

// same read-out, input: VVDVTYDDVPI [FLNB_Y1308_E1305D]
0.511

Lookup VNKIYHPDFIV [LIG3_Y768_Y768H]
0.483

Entry to check: DHAGTYGLGDR [MAPT_Y18]
0.352

Would you mind doing YDRREYSRFEK [ITGB7_Y758] as well?
0.512

Also check YTGDIYSSSNL [LZTR1_Y141_N143S]
3.2

And for LNPVVYTLRNA [OR4C12_Y285] ?
0.971

Now try ETALHYIHDGI [GATD3A_Y250] .
0.431

Another sequence to look at: CTTIHYNYTCN [TP53_Y234_M237T]
0.403

Same thing, different sequence: SVQVDYMKTIL [GLYATL2_Y127]
0.428

Now the sequence SDQRRYSLIDP [CLIP2_Y972_R977P]
1.3

Next entry: NTFEKYLGEEF [TF_Y669_YF]
0.379

Now the sequence QGLRLYRSHLA [BTK_Y617_P619S]
0.417

Now try ESLRPYDVMDV [KCNQ2_Y562] .
0.437

Follow-up entry: PSAELYSFALP [PDGFRB_Y716_N718Y_YF]
13.2

Then what about the sequence CTTIHHNYMCN [TP53_Y234_Y234H] ?
0.362

Could you do the same for GGMTEYNLVVV [KRAS_Y4_K5N] , please?
0.398

Next sequence: FTHSDYQFGQR [PKP2_Y166_S169G_YF]
0.469
